- TARGET DESC: telomerase in human renal carcinoma cell line ACHN (Homo sapiens, UniProt O14746)
- Construct: human renal carcinoma cell line ACHN for 3 days, and then a cell extract was prepared; endogenous in cells; host or cells: ACHN human renal carcinoma cells; CHAPS extract after 3 days of treatment
- Sequence (O14746 whole entry): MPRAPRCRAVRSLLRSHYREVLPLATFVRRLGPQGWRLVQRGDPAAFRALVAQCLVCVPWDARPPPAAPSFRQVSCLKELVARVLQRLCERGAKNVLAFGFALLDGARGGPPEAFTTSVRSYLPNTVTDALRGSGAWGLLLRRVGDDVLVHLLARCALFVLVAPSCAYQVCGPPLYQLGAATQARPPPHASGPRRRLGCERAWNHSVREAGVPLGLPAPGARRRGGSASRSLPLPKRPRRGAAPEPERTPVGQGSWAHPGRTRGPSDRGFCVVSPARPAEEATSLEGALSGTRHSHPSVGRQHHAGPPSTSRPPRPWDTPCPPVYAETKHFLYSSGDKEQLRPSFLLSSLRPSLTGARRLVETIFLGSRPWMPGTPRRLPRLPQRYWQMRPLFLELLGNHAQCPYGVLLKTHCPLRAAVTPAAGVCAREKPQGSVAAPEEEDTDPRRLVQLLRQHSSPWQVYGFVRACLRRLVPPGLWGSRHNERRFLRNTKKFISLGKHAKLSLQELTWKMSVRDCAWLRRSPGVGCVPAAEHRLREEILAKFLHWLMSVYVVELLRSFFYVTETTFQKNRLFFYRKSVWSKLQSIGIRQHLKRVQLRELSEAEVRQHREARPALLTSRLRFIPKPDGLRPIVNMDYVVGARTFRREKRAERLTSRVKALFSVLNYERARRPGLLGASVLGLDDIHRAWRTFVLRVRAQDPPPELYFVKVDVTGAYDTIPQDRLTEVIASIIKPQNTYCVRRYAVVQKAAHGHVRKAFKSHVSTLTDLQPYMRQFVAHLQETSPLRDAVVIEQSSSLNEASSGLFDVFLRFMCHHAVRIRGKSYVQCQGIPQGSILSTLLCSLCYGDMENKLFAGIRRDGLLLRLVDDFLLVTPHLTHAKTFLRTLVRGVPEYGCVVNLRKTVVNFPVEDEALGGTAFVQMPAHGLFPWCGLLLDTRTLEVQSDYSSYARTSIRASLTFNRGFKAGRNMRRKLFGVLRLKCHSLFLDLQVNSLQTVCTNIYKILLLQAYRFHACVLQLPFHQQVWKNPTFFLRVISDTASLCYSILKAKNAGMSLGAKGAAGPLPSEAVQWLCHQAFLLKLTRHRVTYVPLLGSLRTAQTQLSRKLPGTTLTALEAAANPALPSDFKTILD
- Sequence (O60832 whole entry partner): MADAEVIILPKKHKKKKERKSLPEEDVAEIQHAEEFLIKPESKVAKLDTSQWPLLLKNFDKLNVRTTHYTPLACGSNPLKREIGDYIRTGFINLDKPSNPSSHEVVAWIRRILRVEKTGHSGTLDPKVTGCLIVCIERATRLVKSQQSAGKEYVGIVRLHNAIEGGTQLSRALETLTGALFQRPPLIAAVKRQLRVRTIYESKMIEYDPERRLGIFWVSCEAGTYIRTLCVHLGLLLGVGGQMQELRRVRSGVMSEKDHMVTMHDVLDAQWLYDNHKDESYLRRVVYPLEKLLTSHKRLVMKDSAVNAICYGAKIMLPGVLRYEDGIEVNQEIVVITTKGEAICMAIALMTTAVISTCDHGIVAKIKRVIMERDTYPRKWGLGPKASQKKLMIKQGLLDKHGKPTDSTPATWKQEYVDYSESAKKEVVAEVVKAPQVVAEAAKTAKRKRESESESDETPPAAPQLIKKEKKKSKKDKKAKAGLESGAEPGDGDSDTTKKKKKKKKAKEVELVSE
- Sequence (Q9NPE3 whole entry partner): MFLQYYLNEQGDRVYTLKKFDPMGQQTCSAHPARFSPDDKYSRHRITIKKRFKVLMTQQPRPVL
- Sequence (Q9NX24 whole entry partner): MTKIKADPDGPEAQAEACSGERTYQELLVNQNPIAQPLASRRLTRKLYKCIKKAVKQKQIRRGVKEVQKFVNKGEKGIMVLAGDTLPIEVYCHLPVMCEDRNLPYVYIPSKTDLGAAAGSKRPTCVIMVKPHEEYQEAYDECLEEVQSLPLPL
- Sequence (Q9NY12 whole entry partner): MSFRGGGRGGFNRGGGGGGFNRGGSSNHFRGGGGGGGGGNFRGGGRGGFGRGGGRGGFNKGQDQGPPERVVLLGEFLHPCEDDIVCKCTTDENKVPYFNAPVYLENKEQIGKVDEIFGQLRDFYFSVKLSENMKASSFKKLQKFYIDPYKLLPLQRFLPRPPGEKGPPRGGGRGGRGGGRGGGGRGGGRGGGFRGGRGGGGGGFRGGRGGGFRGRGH
- ASSAY REMARKS: Telomerase activity in extract of agent-treated ACHN cells (TRAP assay)
- Format: cell-based
- MEASUREMENT SETUP: contact 3 days, concentration 100 μM
RECORDED METRIC: Residual Enzyme Activity (%)

[
  {
    "SMILES REPRESENTATION": "Cc1ccc(Oc2cccc(C=C3SC(=O)NC3=O)c2)cc1",
    "TARGET DESC": "telomerase in human renal carcinoma cell line ACHN (Homo sapiens, UniProt O14746)",
    "Residual Enzyme Activity (%)": 26
  },
  {
    "SMILES REPRESENTATION": "O=C1NC(=O)C(=Cc2cc([N+](=O)[O-])ccc2OCc2ccccc2)S1",
    "TARGET DESC": "telomerase in human renal carcinoma cell line ACHN (Homo sapiens, UniProt O14746)",
    "Residual Enzyme Activity (%)": 0
  },
  {
    "SMILES REPRESENTATION": "O=C1NC(=O)C(=Cc2ccc(Oc3ccccc3)cc2)S1",
    "TARGET DESC": "telomerase in human renal carcinoma cell line ACHN (Homo sapiens, UniProt O14746)",
    "Residual Enzyme Activity (%)": 47
  },
  {
    "SMILES REPRESENTATION": "CC(=O)Nc1ccc(Sc2ccc(C)cc2)c(C=C2SC(=O)NC2=O)c1",
    "TARGET DESC": "telomerase in human renal carcinoma cell line ACHN (Homo sapiens, UniProt O14746)",
    "Residual Enzyme Activity (%)": 0
  }
]

a. O=C1NC(=O)C(=Cc2cccc(Oc3ccccc3)c2)S1
b. Cc1ccc(COc2ccccc2C=C2SC(=O)NC2=O)cc1
Exercise: Smaller Residual Enzyme Activity (%) value? Options are a and b Bench note: the answer is the label of the chosen record.
Key: b
(b: 33%, a: 50%)
